test system: P-gp KO HT29/DOX cells; experiment: cells; conditions: Homo sapiens, HT-29, read-out: IC50 of doxorubicin
READOUT: pIC50
Would you please state pIC50, meaning minus log10 of the concentration in mol/L, as a bare number?

Q. Field request: pIC50 | item: `COc1cccc2c1C(=O)c1c(O)c3c(c(O)c1C2=O)C[C@@](O)(C(=O)CO)C[C@@H]3O[C@H]1C[C@H](N)[C@H](O)[C@H](C)O1`
A. 6.34

###

Where a name gives a salt, the structure may show the parent alone.
READOUT: melting point

Worked examples, 4 compounds total:
COc1cc(C(=O)OCCCN(CCCCCCOC(=O)c2c3ccccc3cc3ccccc23)CCCOc2ccc3ccc(=O)oc3c2)cc(OC)c1OC (as salt: hydrochloride)    87 to 90 °C
COc1cc(/C=C/C(=O)OCCCCCCN(CCCOC(=O)c2cc(OC)c(OC)c(OC)c2)CCCOc2ccc3ccc(=O)oc3c2)cc(OC)c1OC (as salt: hydrochloride)    71 to 74 °C
COc1cc(C(=O)OCCCCCCN(CCCOC(=O)c2cc(OC)c(OC)c(OC)c2)CCCOc2ccc3ccc(=O)oc3c2)cc(OC)c1OC (as salt: hydrochloride)    83 to 85 °C
O=C(OCCCCCCN(CCCOC(=O)c1c2ccccc2cc2ccccc12)CCCOc1ccc2ccc(=O)oc2c1)c1c2ccccc2cc2ccccc12 (as salt: hydrochloride)    136 to 139 °C

Now for another entry.
Q. Field request: melting point | item: COc1cc(/C=C/C(=O)OCCCCCCCN(CCCOC(=O)c2cc(OC)c(OC)c(OC)c2)CCCOc2ccc3ccc(=O)oc3c2)cc(OC)c1OC (as salt: hydrochloride)
A. 84 to 87 °C

###

Counter-ions that a name gives are not always drawn.
READOUT: melting point

Before answering, review these 5 worked examples.
COc1cc(C(=O)OCCCCCN(CCCOC(=O)c2c3ccccc3cc3ccccc23)CCCOc2ccc3ccc(=O)oc3c2)cc(OC)c1OC (as salt: hydrochloride) [Compound 6]    114 to 117 °C
COc1cc(/C=C/C(=O)OCCCN(CCCCCCOC(=O)c2cc(OC)c(OC)c(OC)c2)CCCOc2ccc3ccc(=O)oc3c2)cc(OC)c1OC (as salt: hydrochloride) [Compound 13]    78 to 81 °C
COc1cc(C(=O)OCCCN(CCCCCCCOC(=O)c2c3ccccc3cc3ccccc23)CCCOc2ccc3ccc(=O)oc3c2)cc(OC)c1OC (as salt: hydrochloride) [Compound 26]    97 to 99 °C
COc1cc(/C=C/C(=O)OCCCCCCCN(CCCOC(=O)/C=C/c2cc(OC)c(OC)c(OC)c2)CCCOc2ccc3ccc(=O)oc3c2)cc(OC)c1OC (as salt: hydrochloride) [Compound 19]    90 to 92 °C
COc1cc(C(=O)OCCCCCCCN(CCCOC(=O)c2c3ccccc3cc3ccccc23)CCCOc2ccc3ccc(=O)oc3c2)cc(OC)c1OC (as salt: hydrochloride) [Compound 24]    75 to 77 °C

Q. Entry COc1cc(/C=C/C(=O)OCCCCCCN(CCCOC(=O)c2c3ccccc3cc3ccccc23)CCCOc2ccc3ccc(=O)oc3c2)cc(OC)c1OC (as salt: hydrochloride) [Compound 12] : reported melting point = ?
A. 99 to 102 °C

###

Recorded Ki for the following molecules
target: hCA IX (Homo sapiens); assay: stopped-flow CO2 hydrase assay, hCA IX; details: read-out: Ki hCA IX; stopped-flow technique, mean from three different assays
Unit nM implied. Number only.

Completed entries (count: 5):
COc1cc(/C=C/C(=O)OCCCN(CCCCCCOC(=O)c2c3ccccc3cc3ccccc23)CCCOc2ccc3ccc(=O)oc3c2)cc(OC)c1OC    148
COc1cc(C(=O)OCCCN(CCCCCCCOC(=O)c2c3ccccc3cc3ccccc23)CCCOc2ccc3ccc(=O)oc3c2)cc(OC)c1OC    41.3
COc1cc(/C=C/C(=O)OCCCN(CCCCCCCOC(=O)c2c3ccccc3cc3ccccc23)CCCOc2ccc3ccc(=O)oc3c2)cc(OC)c1OC    71.1
O=C(OCCCCCCCN(CCCOC(=O)c1c2ccccc2cc2ccccc12)CCCOc1ccc2ccc(=O)oc2c1)c1c2ccccc2cc2ccccc12    102
COc1cc(/C=C/C(=O)OCCCCCCN(CCCOC(=O)c2cc(OC)c(OC)c(OC)c2)CCCOc2ccc3ccc(=O)oc3c2)cc(OC)c1OC    50.2

Q. So what Ki did `O=C(OCCCCCN(CCCOC(=O)c1c2ccccc2cc2ccccc12)CCCOc1ccc2ccc(=O)oc2c1)c1c2ccccc2cc2ccccc12` get with hCA IX (Homo sapiens)?
A. 137

Q. Quick check: Ki on hCA IX (Homo sapiens), item `COc1cc(/C=C/C(=O)OCCCCCCN(CCCOC(=O)/C=C/c2cc(OC)c(OC)c(OC)c2)CCCOc2ccc3ccc(=O)oc3c2)cc(OC)c1OC` ?
A. 8.1

Q. Find Ki (hCA IX (Homo sapiens)) for the entry `COc1cc(C(=O)OCCCCCN(CCCOC(=O)c2cc(OC)c(OC)c(OC)c2)CCCOc2ccc3ccc(=O)oc3c2)cc(OC)c1OC`
A. 40.7

Q. Give Ki (hCA IX (Homo sapiens)) of the following molecule: `O=C(OCCCCCCN(CCCOC(=O)c1c2ccccc2cc2ccccc12)CCCOc1ccc2ccc(=O)oc2c1)c1c2ccccc2cc2ccccc12`
A. 166

Q. Lab note: need Ki with hCA IX (Homo sapiens) for entry `COc1cc(/C=C/C(=O)OCCCN(CCCCCCCOC(=O)c2cc(OC)c(OC)c(OC)c2)CCCOc2ccc3ccc(=O)oc3c2)cc(OC)c1OC` , please look it up.
A. 43.8

Q. Please state recorded Ki (tested on hCA IX (Homo sapiens)) of `COc1cc(C(=O)OCCCCCCN(CCCOC(=O)c2cc(OC)c(OC)c(OC)c2)CCCOc2ccc3ccc(=O)oc3c2)cc(OC)c1OC`
A. 82.7

Q. Field: Ki (hCA IX (Homo sapiens)). Entry: `COc1cc(/C=C/C(=O)OCCCCCN(CCCOC(=O)c2cc(OC)c(OC)c(OC)c2)CCCOc2ccc3ccc(=O)oc3c2)cc(OC)c1OC`
A. 24.2

Q. What reported Ki corresponds to `COc1cc(C(=O)OCCCCCCN(CCCOC(=O)c2c3ccccc3cc3ccccc23)CCCOc2ccc3ccc(=O)oc3c2)cc(OC)c1OC` on hCA IX (Homo sapiens)?
A. 54.1

Q. Notebook entry, hCA IX (Homo sapiens) assay: Ki of `COc1cc(/C=C/C(=O)OCCCCCCN(CCCOC(=O)c2c3ccccc3cc3ccccc23)CCCOc2ccc3ccc(=O)oc3c2)cc(OC)c1OC` = ?
A. 26.8

Q. Could you share what Ki was measured for `COc1cc(C(=O)OCCCCCCCN(CCCOC(=O)c2cc(OC)c(OC)c(OC)c2)CCCOc2ccc3ccc(=O)oc3c2)cc(OC)c1OC` , tested on hCA IX (Homo sapiens)?
A. 18.3

Q. Test system hCA IX (Homo sapiens); read-out Ki; what value for `COc1cc(/C=C/C(=O)OCCCN(CCCCCCOC(=O)c2cc(OC)c(OC)c(OC)c2)CCCOc2ccc3ccc(=O)oc3c2)cc(OC)c1OC` ?
A. 71.7

Q. Request body: readout Ki, system hCA IX (Homo sapiens), query `COc1cc(C(=O)OCCCCCCCN(CCCOC(=O)c2c3ccccc3cc3ccccc23)CCCOc2ccc3ccc(=O)oc3c2)cc(OC)c1OC` . Return the value.
A. 38.5

Q. Query the reported Ki for hCA IX (Homo sapiens); item: `COc1cc(/C=C/C(=O)OCCCN(CCCCCOC(=O)c2c3ccccc3cc3ccccc23)CCCOc2ccc3ccc(=O)oc3c2)cc(OC)c1OC`
A. 104

Q. Give the reported Ki for `COc1cc(C(=O)OCCCN(CCCCCCOC(=O)c2c3ccccc3cc3ccccc23)CCCOc2ccc3ccc(=O)oc3c2)cc(OC)c1OC` (system: hCA IX (Homo sapiens)).
A. 123

Q. For hCA IX (Homo sapiens), provide Ki of `COc1cc(/C=C/C(=O)OCCCCCCCN(CCCOC(=O)/C=C/c2cc(OC)c(OC)c(OC)c2)CCCOc2ccc3ccc(=O)oc3c2)cc(OC)c1OC` please.
A. 27.8

Q. Item `COc1cc(/C=C/C(=O)OCCCCCCCN(CCCOC(=O)c2c3ccccc3cc3ccccc23)CCCOc2ccc3ccc(=O)oc3c2)cc(OC)c1OC` with hCA IX (Homo sapiens) - Ki?
A. 14.2

The values you see were collected from paper PMC9661477.
